Tested on: HCT-116 colon
assayNotes: NCI-60 one-dose screen, 48 h (100 = growth as untreated, 0 = no growth, -100 = all killed)
reportedConditions: 10 µM
This is part of a sample that, as a whole, favours compounds with a hit. Of some 83,000 tested, about 20% had one in any assay.
propertyMeasured: growth (%)
Reply with just the number (in %).

Worked cases, answers included:
                                   compound    assaytarget  unitlabel  recordednumber
0         CCO/C=C1\SC(=S)N(c2cccc(C)c2)C1=O  HCT-116 colon          %             109
1      COc1ccc(OC)c(/C=C2\CCc3ccccc3C2=O)c1  HCT-116 colon          %            19.3
2                                  CCCCCCCO  HCT-116 colon          %             102
3  COc1cc(C2NC(=O)C(C#N)=C(Nc3cccc(C)c3)S2)ccc1O (centres undefined)  HCT-116 colon          %             103

Query: Find the measured growth: item CCOc1ccc2[nH]c(=S)sc2c1 , target or system HCT-116 colon.
Result: 105

Query: Now this one: NCCCN
Result: 109

Query: Now this one: C#CCSc1nnnn1-c1ccc(Br)c(C)c1
Result: 88

Query: Now this one: C=CCNc1ccccc1
Result: 92.4

Query: Now this one: N=c1c(C(=O)OCc2ccccc2)ncc(CCl)n1O
Result: 78.3

Query: Now this one: Cc1ccc(O)c(C(=O)c2ccccc2)c1
Result: 102

Query: Now this one: O=C(O)[C@@H]1[C@H]2C[C@H]3c4[nH]c5ccccc5c4CCN3C[C@@H]2CC[C@@H]1O
Result: 92.6

Query: Now this one: CC(O)COc1ccc(-c2ccccc2)cc1 (centres undefined)
Result: 97.7

Query: Now this one: Cc1cc2ccccc2c(O)c1C#N
Result: 105

Query: Now this one: CC(C)=C(NC(=O)c1ccccc1)C(=O)O
Result: 117
